Hey, just so you know, these numbers are from ChEMBL document CHEMBL1148798.

test: Bioavailability in rat; format: ADME, organism-based; conditions: in vivo
Observable: bioavailability

Ask: For the compound shown here, `Cc1ccc(CNCC2(F)CCN(C(=O)c3ccc(F)c(Cl)c3)CC2)nc1` , give the reported bioavailability.
Result: > 70%

* * *

Consider the following molecules and their measured Ratio readings.
organism: Rattus norvegicus; assay: Ratio of ED50 for flat body posture induction in rat to ED50 for forepaw treading induction in rat
Write the value as a bare number.

Ask: Which Ratio value belongs to `O=C(c1ccc(F)c(Cl)c1)N1CCC(F)(CNCc2ccc(C(F)F)cn2)CC1` ?
Result: 1.7

Ask: What does the record list as Ratio for `Cc1cnc(CNCC2(F)CCN(C(=O)c3ccc(F)c(Cl)c3)CC2)nc1` ?
Result: 5.5

Ask: Report Ratio for `O=C(c1ccc(F)c(Cl)c1)N1CCC(F)(CNCc2ccc(Cl)cn2)CC1` please.
Result: 1.3

Ask: Dear colleague, I am looking for the recorded Ratio of the following molecule: `O=C(c1ccc(F)c(Cl)c1)N1CCC(F)(CNCc2ccc(CF)cn2)CC1`
Result: 2.6
